Molecular target: Serotonin 3 (5-HT3) receptor (Rattus norvegicus, UniProt P35563+Q9JJ16)
Sequence (P35563 whole entry): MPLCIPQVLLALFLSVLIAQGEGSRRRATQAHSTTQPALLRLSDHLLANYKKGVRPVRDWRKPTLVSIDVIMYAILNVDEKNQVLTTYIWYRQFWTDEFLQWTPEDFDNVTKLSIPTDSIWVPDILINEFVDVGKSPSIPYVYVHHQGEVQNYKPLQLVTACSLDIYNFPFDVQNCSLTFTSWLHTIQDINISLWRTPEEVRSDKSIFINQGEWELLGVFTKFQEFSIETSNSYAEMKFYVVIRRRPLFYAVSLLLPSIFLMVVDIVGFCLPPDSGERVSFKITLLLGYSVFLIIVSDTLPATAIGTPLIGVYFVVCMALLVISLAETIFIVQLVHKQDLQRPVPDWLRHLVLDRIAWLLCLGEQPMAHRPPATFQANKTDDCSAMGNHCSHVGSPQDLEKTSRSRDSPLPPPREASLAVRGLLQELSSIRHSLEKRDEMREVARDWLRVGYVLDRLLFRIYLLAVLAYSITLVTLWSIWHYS
Sequence (Q9JJ16 whole entry): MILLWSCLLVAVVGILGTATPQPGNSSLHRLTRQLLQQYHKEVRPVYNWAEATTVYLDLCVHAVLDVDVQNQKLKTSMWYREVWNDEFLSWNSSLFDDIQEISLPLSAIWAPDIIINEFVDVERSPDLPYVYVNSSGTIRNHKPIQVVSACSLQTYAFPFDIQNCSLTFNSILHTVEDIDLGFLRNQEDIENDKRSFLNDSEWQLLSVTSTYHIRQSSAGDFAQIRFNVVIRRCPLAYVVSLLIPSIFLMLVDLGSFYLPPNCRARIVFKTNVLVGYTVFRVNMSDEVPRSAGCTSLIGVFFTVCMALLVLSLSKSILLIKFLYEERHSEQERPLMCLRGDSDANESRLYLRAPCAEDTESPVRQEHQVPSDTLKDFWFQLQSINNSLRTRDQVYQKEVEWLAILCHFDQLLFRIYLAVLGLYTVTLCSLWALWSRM
Test: Displacement of [3H]GR65630 from 5HT3 receptor in brain cortex from Wistar rat
Assay type: tissue-based
Please respond with reported Ki for every item in the list.

Entry COc1cc(N)c(Cl)cc1C(=O)N[C@@H]1C2CC3CN(C2)CC31 (some centres undefined) — recorded Ki = 1.2 nM

// Ki value for `O=C(OC[C@@H]1CCN2CCC[C@@H]12)c1c[nH]c2ccccc12` : 5 nM

The compound listed as `O=C(OC[C@@H]1CCN2CCC[C@@H]12)c1c[nH]c2ccc(F)cc12` has a reported Ki of 10 nM

Summary for this compound, `O=C(NC[C@@H]1CCN2CCC[C@@H]12)c1cc(Cl)cn2ccnc12` : Ki is 259 nM

Data point: `COc1cc(N)c(Cl)cc1C(=O)OC[C@@H]1CCN2CCC[C@@H]12` ; Ki = 51 nM

Notebook: O=C(OC[C@@H]1CCN2CCC[C@@H]12)c1[nH]nc2ccccc12 (single isomer, unassigned) , Ki read as 135 nM

Measured Ki of Cn1nc(C(=O)OC[C@@H]2CCN3CCC[C@@H]23)c2ccccc21 (single isomer, unassigned) : 20 nM

What the record says about CC(C)n1c(=O)n(C(=O)NC[C@@H]2CCN3CCC[C@@H]23)c2ccccc21 (relative stereo) : Ki is 20.2 nM

Note to self: Ki recorded for `CCOc1cc(N)c(Cl)cc1C(=O)NC[C@@H]1CCN2CCC[C@@H]12` was 25 nM
